- measured-on: EGFR Del19/T790M/C797S (H1975-clone #28) (Homo sapiens, UniProt P00533, T790M/C797S, form not given)
- Sequence (P00533 with tags, fused parts or gaps DEL746-750/T790M/C797S, form open): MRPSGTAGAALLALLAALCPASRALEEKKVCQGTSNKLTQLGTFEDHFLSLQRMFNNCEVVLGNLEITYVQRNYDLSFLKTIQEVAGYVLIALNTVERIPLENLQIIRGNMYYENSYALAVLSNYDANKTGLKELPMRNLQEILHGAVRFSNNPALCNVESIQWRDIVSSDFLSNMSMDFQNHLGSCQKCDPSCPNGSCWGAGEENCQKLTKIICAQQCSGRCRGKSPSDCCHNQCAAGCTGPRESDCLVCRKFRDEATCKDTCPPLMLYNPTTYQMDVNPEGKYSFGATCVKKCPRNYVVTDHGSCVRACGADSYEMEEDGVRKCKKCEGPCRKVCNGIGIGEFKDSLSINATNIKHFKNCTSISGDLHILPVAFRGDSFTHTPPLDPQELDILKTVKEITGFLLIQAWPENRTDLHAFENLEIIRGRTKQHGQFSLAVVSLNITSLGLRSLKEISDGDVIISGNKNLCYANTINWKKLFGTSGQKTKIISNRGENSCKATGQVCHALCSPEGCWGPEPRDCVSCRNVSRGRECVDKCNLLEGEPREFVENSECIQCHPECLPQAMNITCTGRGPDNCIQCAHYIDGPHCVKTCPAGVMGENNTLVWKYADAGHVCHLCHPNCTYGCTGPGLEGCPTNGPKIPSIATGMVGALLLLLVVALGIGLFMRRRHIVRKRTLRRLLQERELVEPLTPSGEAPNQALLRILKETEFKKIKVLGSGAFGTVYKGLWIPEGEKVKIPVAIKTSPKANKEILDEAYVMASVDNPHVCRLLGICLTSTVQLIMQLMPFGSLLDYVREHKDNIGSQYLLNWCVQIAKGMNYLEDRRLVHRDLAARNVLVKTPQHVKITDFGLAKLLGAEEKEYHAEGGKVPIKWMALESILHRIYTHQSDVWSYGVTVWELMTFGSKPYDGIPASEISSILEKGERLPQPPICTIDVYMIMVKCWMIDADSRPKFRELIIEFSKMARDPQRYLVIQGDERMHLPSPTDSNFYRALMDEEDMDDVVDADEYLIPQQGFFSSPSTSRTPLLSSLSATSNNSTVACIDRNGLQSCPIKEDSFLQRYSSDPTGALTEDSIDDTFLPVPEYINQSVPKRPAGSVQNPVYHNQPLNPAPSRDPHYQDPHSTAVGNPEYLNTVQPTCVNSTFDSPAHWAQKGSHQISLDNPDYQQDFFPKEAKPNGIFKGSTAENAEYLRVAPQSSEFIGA
- assay: EGFR degradation, HTRF total-EGFR assay, H1975-clone #28 (DTC)
- Format: cell-based
- details: H1975-clone #28 Del19/T790M/C797S, 16 h treatment
quantity-name: Degradation H1975 # 28 DTC
Give the figure by itself; no unit, no explanation.

Some compounds with known Degradation H1975 # 28 DTC results, for comparison:
The reported Degradation H1975 # 28 DTC of the compound Cc1cc2cc(n1)-c1cnn(C)c1OC[C@H]1C[C@@H](CN3/C(=N/C2=O)Nc2ccc(N4CCN([C@@H]5CCN(c6cnc(C7CCC(=O)NC7=O)cc6C)C[C@@H]5F)CC4)cc23)C1 (some centres unmarked) was 88.8

Measured Degradation H1975 # 28 DTC, COC[C@@H]1CN(c2ccc3c(c2)N2C[C@H]4C[C@@H](COc5c(cnn5C)-c5cc(cc(C)n5)C(=O)/N=C/2N3)C4)CCN1C1CCN(c2cnc(C3CCC(=O)NC3=O)cc2C)CC1 (some centres unmarked) : 82.4

Documented Degradation H1975 # 28 DTC of Cc1cc2cc(n1)-c1cnn(C)c1OC[C@H]1C[C@@H](CN3/C(=N/C2=O)Nc2ccc(N4CCC(N5C[C@@H]6C[C@H]5CN6c5ccc(C6CCC(=O)NC6=O)nc5C)CC4)cc23)C1 (some centres unmarked) : 78.5

Further cases:
The value of Degradation H1975 # 28 DTC measured for the compound Cc1cc2cc(n1)-c1cnn(C)c1OC[C@H]1C[C@@H](CN3/C(=N/C2=O)Nc2ccc(N4CCN([C@H]5CCN(c6cnc(C7CCC(=O)NC7=O)cc6C)C[C@H]5F)CC4)cc23)C1 (some centres unmarked) turned out to be 89.6

Record Cc1cc2cc(n1)-c1cnn(C)c1OC[C@H]1C[C@@H](CN3/C(=N/C2=O)Nc2ccc(N4CCC(N5CCN(c6cc(F)c([C@H]7CCC(=O)NC7=O)c(F)c6)CC5)CC4)cc23)C1 . Reported Degradation H1975 # 28 DTC: 86.2
